target: I-Ak (Mus musculus, UniProt P01910+P06343); experiment: Percent of I-Ak occupied by each eluted self-peptide; conditions: I-Ak from thymus (cortical plus medullary epithelium) of C3H/HeJ mice; Table 1
Sequence (P01910 whole entry, looked up): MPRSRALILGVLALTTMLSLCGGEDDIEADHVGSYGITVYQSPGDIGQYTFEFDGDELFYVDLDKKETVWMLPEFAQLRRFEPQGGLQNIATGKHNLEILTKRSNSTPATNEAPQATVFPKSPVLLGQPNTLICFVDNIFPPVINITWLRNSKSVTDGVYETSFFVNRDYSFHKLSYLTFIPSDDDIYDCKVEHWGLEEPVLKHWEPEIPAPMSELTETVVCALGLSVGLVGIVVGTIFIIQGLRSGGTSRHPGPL
Sequence (P06343 whole entry, looked up): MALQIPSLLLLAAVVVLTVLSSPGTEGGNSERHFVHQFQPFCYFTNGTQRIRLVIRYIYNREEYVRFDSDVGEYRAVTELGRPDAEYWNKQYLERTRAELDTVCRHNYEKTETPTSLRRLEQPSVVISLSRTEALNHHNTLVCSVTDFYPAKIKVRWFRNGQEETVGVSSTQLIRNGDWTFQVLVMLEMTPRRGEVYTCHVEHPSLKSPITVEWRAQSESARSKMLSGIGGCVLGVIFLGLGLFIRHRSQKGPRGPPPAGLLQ
observable: Percent of MHC occupied in Thymus (%)

Examples with answers:
INSERT INTO assay_data (substance, unitannotation, recordedmeasurement) VALUES
  ('e yiLYNKGIMGEdSYPY [Cathepsin H 77-]', '%', 0.2),
  ('k kGTD_FQLNQLEGKKG [Transferrin 103-]', '%', 0.2);

a = xPL_ALQFAELPVNKG
b = a vvKKGTD_FQLNQLE [Transferrin 100-]
For the pair a and b , which entry has the numerically smaller recorded Percent of MHC occupied in Thymus? State your choice using its label.
a
(a: 0.2%, b: 0.3%)
